Please go through the items and note down their Population Fragmented Nuclei (%).
# System: HEK-293T
# Assay Overview: Multiplex assay against HEK293T
# Format: toxicity, cell-based
# Condition Parameters: human, 12 h, 10 µM, compound concentration 10 uM, replicate 2
Include the unit after the number when you answer.

Below, each entry is followed by its recorded Population Fragmented Nuclei (%) result.
>  <Molecule>
COc1cccc2cc(-c3nc([C@H]4CC[C@H](C(=O)O)CC4)n4ncnc(N)c34)[nH]c12

>  <Population Fragmented Nuclei (%)>
9%

$$$$
>  <Molecule>
COc1ccc(-c2ccc3c(N4CCOCC4)nc(N4C[C@@H](C)O[C@@H](C)C4)nc3n2)cc1CO

>  <Population Fragmented Nuclei (%)>
11%

$$$$

Below is a list of molecules. For each, state its recorded Population Fragmented Nuclei (%).
1. CCCS(=O)(=O)c1nc(NC2CC2)cc(-c2ccc3c(ccn3C3CC(C)(C)NC(C)(C)C3)c2)n1
2. CNc1cc(Oc2cc(C(=O)Nc3cc(N4CCN(C)CC4)cc(C(F)(F)F)c3)ccc2C)ncn1
3. CCc1cccc(CC)c1NC(=O)c1nn(C)c2c1CCc1cnc(Nc3ccc(C(=O)NC4CCN(C)CC4)cc3OC(F)(F)F)nc1-2
4. O=C1N/C(=N/c2ccccc2F)S/C1=C\c1ccc(C(=O)O)cc1
5. Cl.Oc1ccc2c3c1O[C@H]1c4[nH]c5c(c4C[C@@]4(O)[C@@H](C2)N(CC2CC2)CC[C@]314)C[C@@]1(O)[C@H]2Cc3ccc(O)c4c3[C@@]1(CCN2CC1CC1)[C@H]5O4
6. CN1C2CCC1CC(OC(c1ccc(F)cc1)c1ccc(F)cc1)C2.Cl (stereo not drawn)

24%
5%
4%
4%
5%
3%

###

# Tested on: Fibroblast
# Assay Overview: Incucyte cell viability with human fibroblast; note: filed as whole numbers so only -1 and 0 and 1 occur
# Type: toxicity, cell-based
# Condition Parameters: 6 h, 10 µM, compound concentration 10 uM, replicate number 1, timepoint 6 hours
Observable: Growth Rate
One number for each entry.

>  <Compound>
COc1ccc(S(=O)(=O)N(CCO)c2ccccc2CN(C)C/C=C/c2ccc(Cl)cc2)cc1.O=P(O)(O)O

>  <Experimental Target>
Fibroblast

>  <Growth Rate>
0

$$$$
>  <Compound>
C[C@@H](c1cccc(C#N)c1)n1cc(Cl)cc(C(N)=O)c1=N.Cl

>  <Experimental Target>
Fibroblast

>  <Growth Rate>
1

$$$$
>  <Compound>
COc1cc2c(CCNC(C)=O)c[nH]c2cc1Cl

>  <Experimental Target>
Fibroblast

>  <Growth Rate>
1

$$$$
>  <Compound>
C#C[C@]1(O)CC[C@H]2[C@@H]3CCc4cc(O)ccc4[C@H]3CC[C@@]21C [ETHINYL ESTRADIOL]

>  <Experimental Target>
Fibroblast

>  <Growth Rate>
0

$$$$
>  <Compound>
CC(C)(C(=O)O)c1ccc(C(O)CCCN2CCC(C(O)(c3ccccc3)c3ccccc3)CC2)cc1.Cl (configuration not stated) [FEXOFENADINE HYDROCHLORIDE]

>  <Experimental Target>
Fibroblast

>  <Growth Rate>
0

$$$$

Below is a list of compounds. For each, state its recorded Growth Rate.
1. CC(C)(Sc1ccc(CCN(CCCCC2CCCCC2)C(=O)NC2CCCCC2)cc1)C(=O)O [GW7647]
2. N[C@@H](Cc1cc(I)c(Oc2ccc(O)c(I)c2)c(I)c1)C(=O)O [LIOTHYRONINE]
3. CC[C@H](CO)Nc1nc(NCc2ccccc2)c2ncn(C(C)C)c2n1 [SELICICLIB]
4. CCCCN(CCCC)C(=O)CN1C[C@H](c2cc(OC)c3c(c2)OCO3)[C@@H](C(=O)O)[C@@H]1CC(C)(C)CCC.Cc1ccc(S(=O)(=O)O)cc1
5. O=C(Nc1cccnn1)N1CCC(=Cc2cccc(Oc3ccc(C(F)(F)F)cn3)c2)CC1

1: 0; 2: 0; 3: 0; 4: 1; 5: 0

###

# Test system: HEK-293T
# Assay Overview: Multiplex assay against HEK293T
# Format: toxicity, cell-based
# Condition Parameters: human, 48 h, 10 µM, compound concentration 10 uM, replicate 2
Observable: Population Mitochondria Different-Phenotype (%)
Include the unit after the number when you answer.

Below, each entry is followed by its recorded Population Mitochondria Different-Phenotype (%) result.
>  <Compound>
Cl.Oc1ccc2c3c1O[C@H]1c4[nH]c5c(c4C[C@@]4(O)[C@@H](C2)N(CC2CC2)CC[C@]314)C[C@@]1(O)[C@H]2Cc3ccc(O)c4c3[C@@]1(CCN2CC1CC1)[C@H]5O4

>  <Experimental Value>
5%

$$$$
>  <Compound>
CCOc1cc2ncc(C#N)c(Nc3ccc(OCc4ccccn4)c(Cl)c3)c2cc1NC(=O)/C=C/CN(C)C

>  <Experimental Value>
16%

$$$$
>  <Compound>
S=C(NCCCc1c[nH]cn1)NCCCN(Cc1ccc(Cl)c(Cl)c1)c1ccc(Br)cn1

>  <Experimental Value>
75%

$$$$
>  <Compound>
O=C(Nc1ccc(-n2nc(-c3cccnc3)cc2C(F)(F)F)cn1)c1ccc(-c2ccccc2)c(F)c1

>  <Experimental Value>
4%

$$$$
>  <Compound>
CN(C)C(=O)C(CCN1CCC(O)(c2ccc(Cl)cc2)CC1)(c1ccccc1)c1ccccc1.Cl [LOPERAMIDE HYDROCHLORIDE]

>  <Experimental Value>
90%

$$$$
>  <Compound>
Cl.O=C(c1ccc(Nc2nccc(-c3cc4ccccc4s3)n2)cc1)N1CCC(N2CCCC2)CC1

>  <Experimental Value>
83%

$$$$

Below is a list of compounds. For each, state its recorded Population Mitochondria Different-Phenotype (%).
1. O=C1N/C(=N/c2ccccc2F)S/C1=C\c1ccc(C(=O)O)cc1
2. O=C(Cc1ccc(-c2ccc(OCCN3CCOCC3)cc2)cn1)NCc1ccccc1
3. CCCn1c(=O)c2[nH]c(-c3cnn(Cc4cccc(C(F)(F)F)c4)c3)nc2n(CC)c1=O
4. CCn1c(=O)c(-c2ccc(-c3cncs3)cc2Cl)cc2cnc(Nc3ccc(N4CCN(C)CC4)cc3)nc21
5. CCN1CCN(Cc2ccc(Nc3ncc(F)c(-c4cc(F)c5nc(C)n(C(C)C)c5c4)n3)nc2)CC1.CS(=O)(=O)O
6. CN1C2CCC1CC(OC(c1ccc(F)cc1)c1ccc(F)cc1)C2.Cl (configuration not stated)

1: 5%; 2: 23%; 3: 8%; 4: 25%; 5: 94%; 6: 96%

###

# System: U2OS
# Assay Overview: Multiplex assay against U2OS
# Format: toxicity, cell-based
# Condition Parameters: human, 12 h, 1 µM, compound concentration 1 uM, replicate 2
Please go through the items and note down their Population Tubulin-Different-Phenotype (%).
One number for each entry, in %.

Below, each entry is followed by its recorded Population Tubulin-Different-Phenotype (%) result.
>  <Compound>
NC(=O)c1cccc(-c2cc(Nc3ccc(OC(F)(F)F)cc3)ncn2)c1

>  <Experimental Value>
29

$$$$
>  <Compound>
CCN1CCN(c2ccc(Nc3cc(N(C)C(=O)Nc4c(Cl)c(OC)cc(OC)c4Cl)ncn3)cc2)CC1

>  <Experimental Value>
55

$$$$
>  <Compound>
CCOC(=O)c1c(C)[nH]c2ccc3c(c12)CN1CCc2cc(OC)ccc2C1O3 (stereo not drawn)

>  <Experimental Value>
62

$$$$
>  <Compound>
CN1CCC(=C2c3ccccc3CC(=O)c3sccc32)CC1.O=C(O)/C=C/C(=O)O [KETOTIFEN FUMARATE]

>  <Experimental Value>
9

$$$$

Below is a list of compounds. For each, state its recorded Population Tubulin-Different-Phenotype (%).
1. Cc1ccc2nc(NCCN)c3ncc(C)n3c2c1.O=C(O)C(F)(F)F.O=C(O)C(F)(F)F
2. CCn1c(=O)c(-c2ccc(-c3cncs3)cc2Cl)cc2cnc(Nc3ccc(N4CCN(C)CC4)cc3)nc21
3. O=C(Cc1ccc(-c2ccc(OCCN3CCOCC3)cc2)cn1)NCc1ccccc1
4. CNc1cc(Oc2cc(C(=O)Nc3cc(N4CCN(C)CC4)cc(C(F)(F)F)c3)ccc2C)ncn1

17
19
12
52

###

# System: Fibroblast
# Assay Overview: Multiplex assay against human fibroblast
# Assay type: toxicity, cell-based
# Condition Parameters: 24 h, 10 µM, compound concentration 10 uM, replicate 2
Please go through the items and note down their Population Mitotic Cells (%).
Answers are plain numbers, in %.

Below, each entry is followed by its recorded Population Mitotic Cells (%) result.
>  <Molecule>
Cc1ccc(C(=O)Nc2cccc(C(F)(F)F)c2)cc1Nc1nc(-c2cccnc2)nc2c1cnn2C

>  <Observable>
Population Mitotic Cells (%)

>  <Experimental Value>
9

$$$$
>  <Molecule>
C=C1/C(=C\C=C2/CCC[C@]3(C)[C@@H]([C@H](C)/C=C/[C@H](C)C(C)C)CC[C@@H]23)C[C@@H](O)C[C@@H]1O

>  <Observable>
Population Mitotic Cells (%)

>  <Experimental Value>
66

$$$$
>  <Molecule>
CCOC(=O)c1c(C)[nH]c2ccc3c(c12)CN1CCc2cc(OC)ccc2C1O3 (centres undefined)

>  <Observable>
Population Mitotic Cells (%)

>  <Experimental Value>
10

$$$$

Form: Entry = CNC(=O)c1ccc(Nc2nc(OC3CCCC3)c3c(-c4ccc5nc(C)oc5c4)c[nH]c3n2)c(OC)c1 | System = Fibroblast | Population Mitotic Cells (%) = ____ 28
